tested on: U2OS; test: Incucyte cell viability with U2OS; type: toxicity, cell-based; details: human, 6 h, 10 µM, compound concentration 10 uM, replicate number 1; note: unitless GR value; below 1 slowed growth and below 0 cell loss
The threshold is 0.7. Values of Growth Rate beneath it are tagged MET; values meeting or exceeding it are tagged NOT MET.

Query :: Strictly below 0.7 in Growth Rate? CC(C)(C)OC(=O)CN1C(=O)c2c(OCC(=O)O)cccc2Oc2ccc(C(F)(F)F)cc21
Result :: NOT MET

Query :: Please check: Growth Rate for Cc1nc(-c2ccc(C(F)(F)F)cc2)sc1C(=O)NCc1ccc(OC(C)(C)C(=O)O)cc1 , strictly under 0.7 or not?
Result :: NOT MET

Query :: I'd appreciate it if you could check whether O=C(O)c1ccc(CN2C[C@@H]3C[C@H]2CN3Cc2ccc(Oc3ccc(-c4ncco4)cc3)cc2)cc1 has Growth Rate smaller than 0.7.
Result :: NOT MET

----------
tested on: U2OS; assay: Incucyte cell viability with U2OS; format: toxicity, cell-based; conditions: human, 24 h, 10 µM, compound concentration 10 uM, replicate number 2; note: unitless GR value; below 1 slowed growth and below 0 cell loss
Lab note: anything with Growth Rate at or over 0.6 counts as criterion met; the rest go in criterion not met.

{"compound": "CNS(=O)(=O)c1ccc(N(C)C)c(Nc2ncnc3cc(OC)c(OC)cc23)c1", "category_label": "criterion met"}

Query :: Exam item: decide whether the reported Growth Rate for COc1cc(C(=O)NCCOCCOCCOCC(=O)N[C@H](C(=O)N2C[C@@H](O)C[C@H]2C(=O)NCc2ccc(-c3scnc3C)cc2)C(C)(C)C)ccc1Nc1ncc(C(F)(F)F)c(Oc2cccc3c2C(=O)CC3)n1 is at least 0.6.
Result :: criterion met

Query :: Please check the record O=C1NC(Nc2ccccc2)=N/C1=C\c1ccc2c(c1)OCO2 and state if its Growth Rate is at or above 0.6.
Result :: criterion met

----------
Catalogue of Growth Rate readings, one per entry.
test system: U2OS; assay: Incucyte cell viability with U2OS; type: toxicity, cell-based; settings: human, 24 h, 10 µM, compound concentration 10 uM, replicate number 1; note: unitless GR value; below 1 slowed growth and below 0 cell loss
Output spec: single numeric token, no unit.

Please review the entries below; each comes with its answer.
{"molecule": "Cn1c(Nc2c(Cl)cccc2Cl)nc2ccc3nc[nH]c(=O)c3c21", "target_system": "U2OS", "Growth Rate": 0.98}
{"molecule": "CC(C)NC(=O)[C@H]1CCC[C@H]1Nc1nc(Nc2ccc(C(=O)N(C)C3CCN(C)CC3)cc2)ncc1Cl", "target_system": "U2OS", "Growth Rate": 0.63}
{"molecule": "CN[C@@H](C)C/C=C/c1cncc(OC(C)C)c1 [ISPRONICLINE]", "target_system": "U2OS", "Growth Rate": 0.83}

Lab note: CP(C)(=O)c1ccc(CNC(=O)C2CCN(S(=O)(=O)c3cc(Cl)cc(Cl)c3)CC2)cc1 gave Growth Rate of 0.87

So, Cc1cc(OCCC(C)(C)O)cc(C)c1-c1ccc(F)c2c1CC[C@H]2Oc1ccc2c(c1)OC[C@H]2CC(=O)O ? Its Growth Rate was 0.98

----------
test system: U2OS; test: Incucyte cell viability with U2OS; type: toxicity, cell-based; conditions: human, 6 h, 10 µM, compound concentration 10 uM, replicate number 2; note: unitless GR value; below 1 slowed growth and below 0 cell loss
Outcome: MET for Growth Rate of at least 0.6; NOT MET for anything lower.

Known results for compounds:
{"structure_string": "COc1cc(-c2cncc(-c3cnn(C4CCNCC4)c3)c2)cc(OC)c1OC", "category_label": "NOT MET"}
{"structure_string": "CCn1ccc(Nc2ncc3c(n2)-c2c(nn(C)c2-c2ccc(-c4cnn(C)c4)cc2Cl)CC3)n1", "category_label": "NOT MET"}
{"structure_string": "CC(=O)c1c(C)c2cnc(Nc3ccn(C)n3)nc2n(C2CCCC2)c1=O", "category_label": "MET"}

Query :: Could you tell me if the measured Growth Rate of COc1cc(-c2cc3ncccc3c(OC[C@H]3CNC(=O)C3)n2)cc(OC)c1OC1CCOCC1.O=C(O)C(F)(F)F reaches 0.6 or more?
Result :: MET

Query :: Record Cl.Cl.O=C1c2ccccc2C(Cc2ccncc2)(Cc2ccncc2)c2ccccc21 ; criterion: Growth Rate no lower than 0.6. Met?
Result :: NOT MET

Query :: Hello, I need to know if Clc1cccc(Nc2nccc(NCCCN3CCOCC3)n2)c1 has measured Growth Rate not below 0.6. Thanks!
Result :: MET

Query :: // inclusive: Growth Rate at least 0.6? input: Cn1nccc1-c1ccc(Sc2cccc(C3(C(N)=O)CCOCC3)c2)cc1
Result :: MET

Query :: Hello, I need to know if Cn1cc(-c2ccc(N(C(=O)NCc3ccccc3)[C@H]3CC[C@H](Nc4ccc(C#N)cn4)CC3)cc2)ccc1=O has measured Growth Rate not below 0.6. Thanks!
Result :: NOT MET

Query :: For this compound, is measured Growth Rate 0.6 or higher? O=c1cc(-c2ccccc2)oc2c1ccc1ccccc12
Result :: NOT MET
